Cited source: patent US12583846B2

# test protocol: Pharmacokinetic evaluation experiment in mice (intravenous or intraperitoneal injection of compound 6)
# Type: in vivo, C57BL/6 mice
# condition parameters: male, C57BL/6, mouse, plasma, intraperitoneal 3 mg/kg vs intravenous 1 mg/kg
reported property: bioavailability (%)

[
  {
    "molecule": "O=C(Nc1cnc(-c2cc3oc(C4CC4)cc3cc2Cl)cn1)c1c(F)cccc1F [Compound 6]",
    "reported property": "bioavailability",
    "number": 125
  }
]
